TESTED SYSTEM: human CB1 receptors (Homo sapiens)
Sequence (P21554 whole entry): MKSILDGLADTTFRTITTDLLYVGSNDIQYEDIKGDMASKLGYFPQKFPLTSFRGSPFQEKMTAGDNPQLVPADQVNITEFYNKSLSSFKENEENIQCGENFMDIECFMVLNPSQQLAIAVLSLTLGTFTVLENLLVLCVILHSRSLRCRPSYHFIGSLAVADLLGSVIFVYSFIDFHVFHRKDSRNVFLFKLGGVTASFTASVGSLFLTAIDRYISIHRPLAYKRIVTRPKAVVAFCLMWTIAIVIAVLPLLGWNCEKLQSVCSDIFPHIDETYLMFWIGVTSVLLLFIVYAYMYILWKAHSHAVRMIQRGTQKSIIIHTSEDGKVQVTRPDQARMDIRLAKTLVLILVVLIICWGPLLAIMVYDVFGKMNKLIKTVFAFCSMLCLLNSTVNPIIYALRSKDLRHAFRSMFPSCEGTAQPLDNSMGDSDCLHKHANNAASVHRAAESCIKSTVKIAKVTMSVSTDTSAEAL
PROTOCOL: Radioligand competition binding of [^3H]CP55940, human CB1
SETTINGS: competition with [^3H]CP55940; cells recombinantly expressing the receptor
QUANTITY KIND: Ki

Task: Give the value of Ki reported for the following: CCC(CC)(NC(=O)c1ccc(N2CC(OC)C2)c(OC[C@H]2C[C@@H]2CO)n1)C(=O)OCCCF [unlabeled compound of formula (I)]
Result: > 10 µM
